Ref: patent US7118895B2

Tested on: Crude diglycosidase
Test: Examination of pH in the conversion into isoflavone aglycons by diglycosidase using soybean materials
Format: biochemical, Penicillium multicolor IAM7153
Settings: pH3.7; heat treatment of enzyme: yes; reaction time 6 h
Assign Decomposition efficiency of glycitin family in concentrated soybean protein to each entry below.
Use % as the unit, but write only the number.

What the record says about COc1cc2c(=O)c(-c3ccc(O)cc3)coc2cc1O[C@@H]1O[C@H](COC(=O)CC(=O)O)[C@@H](O)[C@H](O)[C@H]1O : Decomposition efficiency of glycitin family in concentrated soybean protein is 0.4

response.value for COc1cc2c(=O)c(-c3ccc(O)cc3)coc2cc1O[C@@H]1O[C@H](COC(C)=O)[C@@H](O)[C@H](O)[C@H]1O (field: Decomposition efficiency of glycitin family in concentrated soybean protein) = 35.9

Decomposition efficiency of glycitin family in concentrated soybean protein reading for COc1cc2c(=O)c(-c3ccc(O)cc3)coc2cc1O[C@@H]1O[C@H](CO)[C@@H](O)[C@H](O)[C@H]1O : 52.4

Just so you know, measured Decomposition efficiency of glycitin family in concentrated soybean protein for COc1cc2c(=O)c(-c3ccc(O)cc3)coc2cc1O came out at 11.3

---

System: Crude diglycosidase
Assay: Examination of temperature in the conversion into isoflavone aglycons by diglycosidase using soybean materials
Assay type: biochemical, Penicillium multicolor IAM7153
Set-up: concentration or dose not given beside the values
Details: 45 °C; heat treatment of enzyme: no; 6 h
MEASUREMENT LABEL: Decomposition efficiency of daidzin family in soymilk (%)
Number in %, nothing else.

Lab book: Decomposition efficiency of daidzin family in soymilk of O=c1c(-c2ccc(O)cc2)coc2cc(O[C@@H]3O[C@H](CO)[C@@H](O)[C@H](O)[C@H]3O)ccc12 [daidzin] noted as 6.9

Lab book: Decomposition efficiency of daidzin family in soymilk of O=c1c(-c2ccc(O)cc2)coc2cc(O)ccc12 [daidzein] noted as 62.8

So, O=C(O)CC(=O)OC[C@H]1O[C@@H](Oc2ccc3c(=O)c(-c4ccc(O)cc4)coc3c2)[C@H](O)[C@@H](O)[C@@H]1O [malonyldaidzin, 6″-O-malonyldaidzin] ? Its Decomposition efficiency of daidzin family in soymilk was 30.2

---

Tested on: Crude diglycosidase
Experiment: Examination of pH in the conversion into isoflavone aglycons by diglycosidase using soybean materials
Assay type: biochemical, Penicillium multicolor IAM7153
Details: pH8.6; heat treatment of enzyme: yes; reaction time 6 h
Kindly supply the reported Decomposition efficiency of daidzin family in concentrated soybean protein values for the records listed here.
Dear colleague, please return just the value in %, with no unit written.

The reported Decomposition efficiency of daidzin family in concentrated soybean protein of the molecule O=c1c(-c2ccc(O)cc2)coc2cc(O[C@@H]3O[C@H](CO)[C@@H](O)[C@H](O)[C@H]3O)ccc12 was 59.1

GET /value?item= CC(=O)OC[C@H]1O[C@@H](Oc2ccc3c(=O)c(-c4ccc(O)cc4)coc3c2)[C@H](O)[C@@H](O)[C@@H]1O &field=Decomposition efficiency of daidzin family in concentrated soybean protein returns 37.7

Kindly note the recorded Decomposition efficiency of daidzin family in concentrated soybean protein for O=c1c(-c2ccc(O)cc2)coc2cc(O)ccc12 , which is 3.2

---

System: Crude diglycosidase
Experiment: Examination of substrate concentration in the conversion into isoflavone aglycons by diglycosidase using soybean materials;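 further: percent of the isoflavone family total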
Assay type: biochemical, Penicillium multicolor IAM7153
Settings: concentrated soybean protein, substrate concentration 20%, heat treatment of enzyme no, reaction time 1 h
MEASUREMENT LABEL: Decomposition efficiency: ratio of each glycoside/aglycon within its isoflavone family

Query O=c1c(-c2ccc(O)cc2)coc2cc(O[C@@H]3O[C@H](CO)[C@@H](O)[C@H](O)[C@H]3O)ccc12 yields Decomposition efficiency: ratio of each glycoside/aglycon within its isoflavone family of 0.7%

Decomposition efficiency: ratio of each glycoside/aglycon within its isoflavone family for CC(=O)OC[C@H]1O[C@@H](Oc2cc(O)c3c(=O)c(-c4ccc(O)cc4)coc3c2)[C@H](O)[C@@H](O)[C@@H]1O is 47.0%

Per the records, this compound ( O=c1c(-c2ccc(O)cc2)coc2cc(O[C@@H]3O[C@H](CO)[C@@H](O)[C@H](O)[C@H]3O)cc(O)c12 ) has Decomposition efficiency: ratio of each glycoside/aglycon within its isoflavone family equal to 6.0%

Measured Decomposition efficiency: ratio of each glycoside/aglycon within its isoflavone family of COc1cc2c(=O)c(-c3ccc(O)cc3)coc2cc1O : 51.2%

Sure, the documented Decomposition efficiency: ratio of each glycoside/aglycon within its isoflavone family for COc1cc2c(=O)c(-c3ccc(O)cc3)coc2cc1O[C@@H]1O[C@H](COC(C)=O)[C@@H](O)[C@H](O)[C@H]1O is 35.4%
